Items are presented alongside their recorded pIC50.
biological target: human adenosine A2a receptor (Homo sapiens, UniProt P29274); assay: Adenosine A2a receptor whole cell cyclic AMP assay; settings: A2a @ 1 μM Adenosine (A2a cAMP IC50), HEK293 cells stably expressing human A2a; 1 μM adenosine; 1 hour compound treatment
Sequence (P29274 whole entry): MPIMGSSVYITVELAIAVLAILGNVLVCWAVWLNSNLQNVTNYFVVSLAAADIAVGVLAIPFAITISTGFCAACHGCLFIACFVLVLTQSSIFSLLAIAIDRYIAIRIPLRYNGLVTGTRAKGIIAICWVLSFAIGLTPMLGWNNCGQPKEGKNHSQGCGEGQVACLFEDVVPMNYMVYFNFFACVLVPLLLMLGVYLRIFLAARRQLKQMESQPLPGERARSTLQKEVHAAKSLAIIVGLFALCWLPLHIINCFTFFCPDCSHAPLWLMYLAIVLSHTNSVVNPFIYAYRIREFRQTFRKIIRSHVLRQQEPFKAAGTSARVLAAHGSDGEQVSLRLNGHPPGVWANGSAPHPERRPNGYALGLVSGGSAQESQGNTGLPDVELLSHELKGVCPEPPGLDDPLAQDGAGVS
pIC50: −log10 of the molar value.

Here's what some known entries look like.
Cc1cnc2ccc(-c3c(-c4ccc(F)cc4)nc(N)n4nnnc34)cn12 [1-25]; > 7.00
Nc1nc(-c2ccc(F)cc2)c(-c2ccc3nccn3c2)n2nnnc12 [1-9]; 6.00 to 7.00
Nc1nc(-c2ccc(F)cc2)c(-c2cc(F)c3nccn3c2)n2nnnc12 [1-14]; 6.00 to 7.00
Nc1nc(-c2ccc(F)cc2)c(-c2cc(Cl)c3nccn3c2)n2nnnc12 [1-17]; 6.00 to 7.00
Nc1nc(-c2ccc(F)cc2)c(-c2ccc3nc[nH]c3c2)c2nnnn12 [1-42]; 6.00 to 7.00

Complete the entry with pIC50 for Nc1nc(-c2ccc(F)cc2)c(-c2ccc3ncc(Cl)n3c2)n2nnnc12 [1-23] > 7.00

###

Items are presented alongside their recorded IC50.
molecular target: human adenosine A2a receptor (Homo sapiens, UniProt P29274); test: Adenosine A2a receptor whole cell cyclic AMP assay; conditions: A2a @ 100 μM Adenosine (A2a cAMP IC50), HEK293 cells stably expressing human A2a; 100 μM adenosine; 1 hour compound treatment

Nc1nc(-c2ccc(F)cc2)c(-c2cc(F)c3ncccc3c2)n2nnnc12; > 1000 nM

Complete the entry with IC50 for Cc1cc(-c2c(-c3ccc(F)cc3)nc(N)n3nnnc23)cc(C(F)F)n1 > 1000 nM

Complete the entry with IC50 for Cc1c(C#N)cccc1-c1cc(-c2cn(Cc3cccc(C(C)(C)O)n3)nn2)nc(N)n1 [AB928, reference compound] > 1000 nM

###

target: human adenosine A2a receptor (Homo sapiens, UniProt P29274); assay: Adenosine A2a receptor whole cell cyclic AMP assay; details: A2a @ 100 μM Adenosine (A2a cAMP IC50), HEK293 cells stably expressing human A2a; 100 μM adenosine; 1 hour compound treatment
pIC50: −log10 of the molar value.
Items are presented alongside their recorded pIC50.

Here's what some known entries look like.
Cc1cnc2c(Cl)cc(-c3c(-c4ccc(F)cc4)nc(N)c4nnnn34)cn12 [1-24]; 6.00 to 7.00
Cc1cnc2ccc(-c3c(-c4ccc(F)cc4)nc(N)n4nnnc34)cn12 [1-25]; 6.00 to 7.00
Cn1cnc2ccc(-c3c(-c4ccc(F)cc4)nc(N)c4nnnn34)cc21 [1-13]; 6.00 to 7.00
Nc1nc(-c2ccc(F)cc2)c(-c2ccc3ncc(CO)n3c2)n2nnnc12 [1-20]; < 6.00

Complete the entry with pIC50 for COc1ccc(-c2nc(N)n3nnnc3c2-c2ccc3ncc(C)n3c2)cc1 [1-57] < 6.00

###

molecular target: human adenosine A2a receptor (Homo sapiens); test: Adenosine A2a receptor whole cell cyclic AMP assay; conditions: HEK293, 1 h, read-out: A2a @ 100 μM Adenosine (A2a cAMP IC50)
Items are presented alongside their recorded inhibition at 10 µM.

Here's what some known entries look like.
Cc1cc(-c2c(-c3ccc(F)cc3)nc(N)n3nnnc23)cc(C)n1; < 25%
Nc1nc(-c2ccc(F)cc2)c(-c2ccc3ncsc3c2)n2nnnc12; < 25%
Nc1nc(-c2ccc(F)cc2)c(-c2ccc3ncccc3c2)n2nnnc12; < 25%

Recall the reported inhibition at 10 µM of Cc1ccnc2ccc(-c3c(-c4ccc(F)cc4F)nc(N)c4nnnn34)cc12 on human adenosine A2a receptor (Homo sapiens) and write it down. < 25%

Recall the reported inhibition at 10 µM of Nc1nc(-c2ccc(F)cc2)c(-c2cc(Cl)nc(C(F)(F)F)c2)n2nnnc12 on human adenosine A2a receptor (Homo sapiens) and write it down. < 25%

Recall the reported inhibition at 10 µM of Nc1nc(-c2ccc(F)cc2)c(-c2cc3cnccc3s2)n2nnnc12 on human adenosine A2a receptor (Homo sapiens) and write it down. < 25%
